The reported numbers originate from PubChem BioAssay (NCI).

- ASSAY TEXT: NCI Yeast Anticancer Drug Screen. Data for the rad50 strain (AID 155);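 further: 0% = growth of vehicle-only cultures of the same strain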
- SETTINGS: S. cerevisiae rad50 strain growth inhibition; at 50.0 µM; stronger effect = higher value
This is part of a sample that, as a whole, favours compounds with a hit. Of some 79,000 tested, about 15% had one in any assay.
READOUT TYPE: growth inhibition (%)

[[record]]
compound = "CCCc1cc(=O)oc2c3c(c4c(c12)OC(C)(C)CC4)O[C@H](C)C(C)C3O (some centres not stated)"
number = 24.8

[[record]]
compound = "CCOC(=O)C(NC(=O)c1ccccc1)C1NC(C(=O)O)C(C)(C)S1 (configuration not stated)"
number = -23.1

[[record]]
compound = "Cc1ccc(C)c(NC(=O)/C=N/O)c1"
number = 1

[[record]]
compound = "O=C(Nc1ccc(C(F)(F)F)cc1[N+](=O)[O-])C(=O)Nn1c(=S)[nH]c2ccccc2c1=O"
number = 20.3

[[record]]
compound = "Fc1ccccc1-c1nnc(-c2ccc3ccccc3c2)o1"
number = 33.1

[[record]]
compound = "Nc1ccccc1Br"
number = 29.6

[[record]]
compound = "S=C(NCN1CCCCC1)NCN1CCCCC1"
number = 9.55

[[record]]
compound = "O=C(C(c1ccccc1)c1ccccc1)N(CCO)c1ccccc1"
number = -12

[[record]]
compound = "CC1=C(O)c2ccccc2C(=O)C1=O"
number = 25.4

[[record]]
compound = "COC1OC(C)CC(O)C1O (configuration not stated)"
number = 5.3

[[record]]
compound = "COC(=O)C1(F)C(=O)NC(=O)NC1OC (configuration not stated)"
number = 35.5

[[record]]
compound = "[O-][n+]1cc(N=Nc2ccc(Cl)cc2)nn1-c1ccc(Cl)cc1"
number = -11.6


###

- ASSAY TEXT: NCI Yeast Anticancer Drug Screen. Data for the bub3 strain (AID 167)
- SETTINGS: S. cerevisiae bub3 mutant strain, at 50.0 µM, stronger effect = higher value
The panel holds about 79,000 compounds, 15% with a hit somewhere; the sample as a whole holds those more often.
Documented growth inhibition across a set of compounds
READOUT TYPE: growth inhibition (%)

[[record]]
compound = "O=C(c1ccccc1)C(O)(c1ccccc1)C1CCCC/C1=N\\N(c1ccccc1)c1ccccc1 (stereo not given)"
readout_unit = "%"
number = -20.4

[[record]]
compound = "O=C(O)c1ccncc1C(=O)O"
readout_unit = "%"
number = -5.8

[[record]]
compound = "CCCCS(=O)(=O)CCC(N)P(=O)(O)O (stereo not given)"
readout_unit = "%"
number = -6.15

[[record]]
compound = "COC(=O)c1c2c(cc3c1CC1(Cc4ccccc4C1=O)C3)CCC2 (stereo not given)"
readout_unit = "%"
number = 9.4

[[record]]
compound = "O=Cc1ccc2ccccc2c1"
readout_unit = "%"
number = 16.8

[[record]]
compound = "O=c1ccc(=O)c2c(=O)c3cc4[nH]c5ccccc5[nH]c4cc3c(=O)c12"
readout_unit = "%"
number = -5.6

[[record]]
compound = "Nc1nc(N)c2nc(C(=O)O)c(C(=O)O)nc2n1"
readout_unit = "%"
number = -19

[[record]]
compound = "c1ccc(-c2ccccc2NC2=NCCO2)cc1"
readout_unit = "%"
number = 11.4

[[record]]
compound = "COc1ccc(-n2c(C)c(COC(C)=O)c(COC(C)=O)c2C)cc1"
readout_unit = "%"
number = -7.55

[[record]]
compound = "c1ccc(CCCCc2ccccc2)cc1"
readout_unit = "%"
number = 3.35

[[record]]
compound = "CCCCCCCCCCCCCCC1CC(=O)OC1=O (stereo not given)"
readout_unit = "%"
number = -10.8

[[record]]
compound = "COc1ccc2oc(C(=O)O)cc2c1"
readout_unit = "%"
number = -6.6

[[record]]
compound = "c1ccc(N=C2SC(=NNc3ccccc3)SC2=Nc2ccccc2)cc1"
readout_unit = "%"
number = -8.25

[[record]]
compound = "CC1(S)CCC2CC1C2(C)C (stereo not given)"
readout_unit = "%"
number = -27.4

[[record]]
compound = "CN(C)CCNc1ccc2ncn3c4ccccc4c(=O)c1c23"
readout_unit = "%"
number = -0.1

[[record]]
compound = "CCCCCc1cc(O)cc2c1Oc1cc(O)cc(C(=O)CCCC)c1C(=O)O2"
readout_unit = "%"
number = -9.4

[[record]]
compound = "CN1CCc2[nH]nc(-c3n[nH]c4c3CN(C)CC4)c2C1"
readout_unit = "%"
number = -8.6

[[record]]
compound = "O=C(Nc1ccc(S(=O)(=O)N2CCCCC2)cc1)OC1CCCC1"
readout_unit = "%"
number = 14.8

[[record]]
compound = "O=C(O)CCC1COc2ccccc2O1 (stereo not given)"
readout_unit = "%"
number = -14

[[record]]
compound = "Cn1c2ccccc2c2ccc3c(c21)C(=O)C(c1ccccc1)=CC3=O"
readout_unit = "%"
number = -28.3

[[record]]
compound = "S=c1sc2cscc2s1"
readout_unit = "%"
number = -3

[[record]]
compound = "O=C(Nc1ccccc1C(=O)O)C(=O)C(C(=O)c1ccccc1-c1ccccc1)C1OC(=O)c2ccccc21 (stereo not given)"
readout_unit = "%"
number = 6.25

[[record]]
compound = "Cc1cc2c(=O)cc(-c3ccc(O)cc3)oc2c(C(=O)O)c1C"
readout_unit = "%"
number = 0.6

[[record]]
compound = "CN(C)c1ccc2c(N(C)C)cc(N(C)C)[n+](C)c2c1"
readout_unit = "%"
number = -2

[[record]]
compound = "Cc1ccc(S(=O)(=O)N2CCCC(O)c3ccccc32)cc1 (stereo not given)"
readout_unit = "%"
number = 6.65

